Sourced from patent US20230381229A1

IL-2 luciferase reporter, Normalized Fold Change from CD155-ECD, proteins at 50 nM values for the binders below.
- system-tested: T1, TIGIT (human)
- T1 chain: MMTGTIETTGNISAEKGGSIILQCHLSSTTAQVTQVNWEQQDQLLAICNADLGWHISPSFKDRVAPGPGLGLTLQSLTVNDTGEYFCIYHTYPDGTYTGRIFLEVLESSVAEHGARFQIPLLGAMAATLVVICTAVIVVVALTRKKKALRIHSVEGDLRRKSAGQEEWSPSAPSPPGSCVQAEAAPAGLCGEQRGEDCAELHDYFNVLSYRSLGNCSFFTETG
- assay-procedure: cell-based or functional assay
Give the value in fold but do not write fold after it.

binder: variant CD155 IgV-Fc V11A, P18S, S54R, Q60P, Q62K, L79P, N85D, F91S, T107M (Fc fusion) WPPPGTGDVVAQAPTQVSGFLGDSVTLPCYLQVPNMEVTHVSQLTWARHGESGRMAVFHPTKGPSYSESKRLEFVAARPGAELRDASLRMSGLRVEDEGNYTCLFVMFPQGSRSVDIWLRVLGSGGGGSEPKSSDKTHTCPPCPAPEAEGAPSVFLFPPKPKDTLMISRTPEVTCVVVDVSHEDPEVKFNWYVDGVEVHNAKTKPREEQYNSTYRVVSVLTVLHQDWLNGKEYKCKVSNKALPAPIEKTISKAKGQPREPQVYTLPPSRDELTKNQVSLTCLVKGFYPSDIAVEWESNGQPENNYKTTPPVLDSDGSFFLYSKLTVDKSRWQQGNVFSCSVMHEALHNHYTQKSLSLSPGK
unit-name: fold
measured-result: 2.6

Here is the next item to consider.
Query: # return recorded IL-2 luciferase reporter, Normalized Fold Change from CD155-ECD, proteins at 50 nM for input variant CD155 IgV-Fc P18T, E37G, G53R, Q62K, L79P, F91S, E98D, L104M, T107M (Fc fusion) WPPPGTGDVVVQAPTQVTGFLGDSVTLPCYLQVPNMGVTHVSQLTWARHGESRSMAVFHQTKGPSYSESKRLEFVAARPGAELRNASLRMSGLRVEDDGNYTCMFVMFPQGSRSVDIWLRVLGSGGGGSEPKSSDKTHTCPPCPAPEAEGAPSVFLFPPKPKDTLMISRTPEVTCVVVDVSHEDPEVKFNWYVDGVEVHNAKTKPREEQYNSTYRVVSVLTVLHQDWLNGKEYKCKVSNKALPAPIEKTISKAKGQPREPQVYTLPPSRDELTKNQVSLTCLVKGFYPSDIAVEWESNGQPENNYKTTPPVLDSDGSFFLYSKLTVDKSRWQQGNVFSCSVMHEALHNHYTQKSLSLSPGK
Reply: 8.6
